Origin of values: patent US10221138B2

- system: hGPR120 (Homo sapiens, UniProt Q5NUL3)
- Construct: expressed in transfected cells; host or cells: CHO-K1
- Sequence (Q5NUL3 1-361): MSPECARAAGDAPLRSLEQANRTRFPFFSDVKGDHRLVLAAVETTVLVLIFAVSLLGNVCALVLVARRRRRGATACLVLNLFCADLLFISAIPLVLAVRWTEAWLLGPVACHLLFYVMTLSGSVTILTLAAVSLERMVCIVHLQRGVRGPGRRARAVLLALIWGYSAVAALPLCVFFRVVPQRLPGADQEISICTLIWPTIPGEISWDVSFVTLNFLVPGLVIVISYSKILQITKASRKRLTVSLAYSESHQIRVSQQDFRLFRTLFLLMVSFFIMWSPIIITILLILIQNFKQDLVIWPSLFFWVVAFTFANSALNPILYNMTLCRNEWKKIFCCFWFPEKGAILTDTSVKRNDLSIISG
- assay.details: Measurement of activity of GPR120 agonist (cell-based calcium fluorescence assay)
- measurement.context: CHO-K1 cells expressing Ga16 and hGPR120, Calcium 5 dye fluorescence; activity class; read-out: EC50
# EC50 per entry

Query `CCCSc1ncccc1-c1cc(F)c(OCCCCCC(=O)O)c(F)c1` yields EC50 of < 200 nM

***
Query `O=C(O)CCCOc1c(F)cc(-c2cccnc2OCCN2CC2)cc1F` yields EC50 of > 20000 nM

Query `O=C(O)CCCOc1c(F)cc(-c2ccccc2C2CCCC2)cc1F` yields EC50 of < 200 nM

====

- system: hGPR120 (Homo sapiens, UniProt Q5NUL3)
- Construct: expressed in transfected cells; host or cells: CHO-K1
- Sequence (Q5NUL3 1-361): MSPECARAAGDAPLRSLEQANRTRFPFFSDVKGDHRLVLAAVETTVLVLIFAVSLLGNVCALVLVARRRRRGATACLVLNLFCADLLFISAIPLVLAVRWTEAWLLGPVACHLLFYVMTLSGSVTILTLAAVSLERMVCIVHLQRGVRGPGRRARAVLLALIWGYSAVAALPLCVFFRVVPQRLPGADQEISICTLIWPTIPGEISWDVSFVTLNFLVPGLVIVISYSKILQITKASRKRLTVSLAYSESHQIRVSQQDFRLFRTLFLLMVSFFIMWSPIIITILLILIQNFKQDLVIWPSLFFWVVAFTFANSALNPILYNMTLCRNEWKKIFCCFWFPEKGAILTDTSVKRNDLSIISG
- assay.details: Measurement of activity of GPR120 agonist (cell-based calcium fluorescence assay)
- measurement.context: CHO-K1 cells expressing Ga16 and hGPR120, Calcium 5 dye fluorescence; activity class; read-out: EC50
- Experimental: CHO-K1 cells expressing Ga16 and hGPR120 were dispensed into each well of a 96-well plate (3×10^4 cells/100 μl/well) and then incubated in 5% CO2, 37° C. incubator for 18 hours. […] Fluorescence increased by the serially diluted GPR120 agonists is calculated as a relative percent (%) value based on the fluorescence represented by the treatment of 1% DMSO only. […]
value.type: EC50

Please review the entries below; each comes with its answer.
Query `Cc1cnn(-c2ncccc2-c2cc(F)c(OCCCC(=O)O)c(F)c2)c1` yields EC50 of > 20000 nM

Query `O=C(O)CCCSc1ccc(-c2cccnc2OC2CCC2)cc1` yields EC50 of 200 to 2000 nM

Query `O=C(O)CCCCOc1c(F)cc(-c2cccnc2SC2CCCC2)cc1F` yields EC50 of < 200 nM

Query `CCCSc1ncccc1-c1cc(F)c(SCCCCCC(=O)O)c(F)c1` yields EC50 of 200 to 2000 nM

Now for a further compound.
Query `O=C(O)CCCCOc1c(F)cc(-c2cccnc2OCC2CCC2)cc1F` yields EC50 of < 200 nM
